Recorded values, source ChEMBL document CHEMBL2157932.

assay: Half life in rat liver microsomes by LC/MS/MS; format: ADME, Microsome
Overview of reported half-life across a group of compounds:
readout_label: half-life (min)

smiles_str	readout_label	readout_number
COc1ccc(N2CCN(CC[C@@H](OC(N)=O)c3ccccc3)CC2)cc1	half-life	91
NC(=O)O[C@H](CCN1CCN(c2ccccc2)CC1)c1ccccc1	half-life	8

* * *

Overview of reported inhibition in vivo at 10 mg/kg across a group of compounds:
test system: Mus musculus; assay: Analgesic activity in mouse assessed as inhibition of acetic acid-induced writhing response at 10 mg/kg, po administered 0.5 to 1 hr before acetic acid challenge; assay type: functional
readout_label: inhibition in vivo at 10 mg/kg (%)

compound	readout_number
COc1ccc(N2CCN(CCC(OC(N)=O)c3ccccc3)CC2)cc1 (racemic)	72
COc1ccc(N2CCN(CCC(OC(N)=O)c3ccc(Cl)c(Cl)c3)CC2)cc1 (single isomer, unassigned)	61
COc1cc(OC)cc(N2CCN(CCC(OC(N)=O)c3ccccc3)CC2)c1 (single isomer, unassigned)	13
NC(=O)OC(CCN1CCN(c2ccc(F)cc2)CC1)c1ccccc1 (single isomer, unassigned)	88
COc1ccc(N2CCN(CCC(OC(N)=O)c3ccc(C)c(C)c3)CC2)cc1 (single isomer, unassigned)	58
NC(=O)OC(CCN1CCN(c2ccc(C(F)(F)F)cc2[N+](=O)[O-])CC1)c1ccccc1 (single isomer, unassigned)	50
COc1ccc(N2CCN(CCC(OC(N)=O)c3ccc(Cl)cc3)CC2)cc1 (single isomer, unassigned)	51
COc1ccc(N2CCN(CCC(OC(N)=O)c3ccc(C)cc3C)CC2)cc1 (single isomer, unassigned)	62
NC(=O)OC(CCN1CCN(c2ccccc2O)CC1)c1ccccc1 (single isomer, unassigned)	37
COc1ccc(C(CCN2CCN(c3ccc(OC)cc3)CC2)OC(N)=O)cc1 (stereo unspecified)	53
NC(=O)OC(CCN1CCN(c2ccccc2)CC1)c1ccc([N+](=O)[O-])cc1 (single isomer, unassigned)	91.2
NC(=O)OC(CCN1CCN(c2ccc(F)cc2)CC1)c1ccc(F)cc1 (single isomer, unassigned)	52
NC(=O)OC(CCN1CCN(c2ccc([N+](=O)[O-])cc2)CC1)c1ccc(F)cc1 (single isomer, unassigned)	70
Cc1ccc(N2CCN(CCC(OC(N)=O)c3ccccc3)CC2)c(C)c1 (single isomer, unassigned)	34
Cc1cccc(C)c1N1CCN(CCC(OC(N)=O)c2ccccc2)CC1 (single isomer, unassigned)	48
COc1ccc(N2CCN(CCC(OC(N)=O)c3ccccc3)CC2)c(OC)c1 (single isomer, unassigned)	19

* * *

Overview of reported IC50 across a group of molecules:
target: 5-hydroxytryptamine receptor 2A (Rattus norvegicus); assay: Displacement of [3H]-ketanserin from 5HT2A receptor in rat cortical membrane
Sequence (P14842 whole entry): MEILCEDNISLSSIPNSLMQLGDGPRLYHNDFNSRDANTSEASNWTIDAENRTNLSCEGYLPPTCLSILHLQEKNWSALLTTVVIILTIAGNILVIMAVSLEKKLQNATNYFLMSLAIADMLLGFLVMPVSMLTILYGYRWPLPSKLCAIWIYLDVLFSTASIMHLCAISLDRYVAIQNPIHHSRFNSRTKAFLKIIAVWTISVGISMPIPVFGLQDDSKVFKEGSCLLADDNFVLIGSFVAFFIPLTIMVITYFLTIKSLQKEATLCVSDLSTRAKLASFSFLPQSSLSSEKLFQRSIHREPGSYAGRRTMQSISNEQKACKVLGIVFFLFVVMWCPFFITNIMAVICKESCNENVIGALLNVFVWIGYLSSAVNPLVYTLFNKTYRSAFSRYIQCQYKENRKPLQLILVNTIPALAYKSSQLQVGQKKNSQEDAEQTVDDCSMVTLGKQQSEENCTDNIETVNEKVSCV
readout_label: IC50 (nM)

molecule	reading_unit	value_prefix	readout_number
Cc1ccccc1N1CCN(CCC(OC(N)=O)c2ccccc2)CC1 (single isomer, unassigned)	nM	=	78.3
Cc1cccc(N2CCN(CCC(OC(N)=O)c3ccccc3)CC2)c1 (single isomer, unassigned)	nM	=	92.5
O[C@@H](CCN1CCN(c2ccccc2)CC1)c1ccccc1	nM	=	289
COc1ccc(N2CCN(CC[C@@H](OC(N)=O)c3ccccc3)CC2)cc1	nM	=	5770
O[C@H](CCN1CCN(c2ccccc2)CC1)c1ccccc1	nM	=	452
O=C(CCN1CCN(c2ccccc2)CC1)c1ccccc1	nM	=	1070
NC(=O)O[C@H](CCN1CCN(c2ccccc2)CC1)c1ccccc1	nM	=	62
NC(=O)OC(CCN1CCN(c2ccc(C(F)(F)F)cc2)CC1)c1ccccc1 (single isomer, unassigned)	nM	=	2110
Cc1ccc(N2CCN(CCC(OC(N)=O)c3ccccc3)CC2)cc1 (single isomer, unassigned)	nM	=	369
NC(=O)O[C@@H](CCN1CCN(c2ccccc2)CC1)c1ccccc1	nM	=	1020
NC(=O)OC(CCN1CCN(c2ccccc2Cl)CC1)c1ccccc1 (single isomer, unassigned)	nM	>	100000

* * *

experiment: Half life in human liver microsomes by LC/MS/MS; type: ADME, Microsome
readout_label: log10 of half-life (log10 of the value in min)

compound	readout_number
NC(=O)OC(CCN1CCN(c2ccc(O)cc2)CC1)c1ccc(F)cc1 (single isomer, unassigned)	2.17
NC(=O)OC(CCN1CCN(c2ccccc2)CC1)c1ccc(Cl)cc1 (single isomer, unassigned)	1.18
NC(=O)O[C@H](CCN1CCN(c2ccccc2)CC1)c1ccccc1	1.79
COc1ccc(N2CCN(CC[C@@H](OC(N)=O)c3ccccc3)CC2)cc1	2.50
NC(=O)OC(CCN1CCN(c2ccccc2)CC1)c1ccccc1 (racemic)	1.28
NC(=O)OC(CCN1CCN(c2ccccc2)CC1)c1ccc(F)cc1 (configuration not stated)	1.26
COc1ccc(N2CCN(CCC(OC(N)=O)c3ccccc3)CC2)cc1 (racemic)	2.09

* * *

target: UniProt:P14842; experiment: Displacement of [3H]-ketanserin from 5HT2A receptor in rat cortical membrane at 1 uM; type: cell membranes
Overview of reported inhibition across a group of molecules:

molecule	reading_unit	inhibition
NC(=O)OC(CCN1CCN(c2ccccc2)CC1)c1ccc(Cl)cc1 (single isomer, unassigned)	%	84.6
COc1ccc(C(CCN2CCN(c3ccccc3)CC2)OC(N)=O)cc1 (single isomer, unassigned)	%	82
NC(=O)OC(CCN1CCN(c2ccccc2)CC1)c1ccc([N+](=O)[O-])cc1 (single isomer, unassigned)	%	88
NC(=O)OC(CCN1CCN(c2ccc(F)cc2)CC1)c1ccc(F)cc1 (single isomer, unassigned)	%	93.9
NC(=O)OC(CCN1CCN(c2ccccc2)CC1)c1cccc(Cl)c1 (single isomer, unassigned)	%	93.7
Cc1ccc(C(CCN2CCN(c3ccccc3)CC2)OC(N)=O)cc1 (single isomer, unassigned)	%	85.6
CC(C)(C)c1ccc(C(CCN2CCN(c3ccccc3)CC2)OC(N)=O)cc1 (single isomer, unassigned)	%	98.8
NC(=O)OC(CCN1CCN(c2ccccc2)CC1)c1ccc(F)cc1 (stereo not given)	%	84.7
NC(=O)OC(CCN1CCN(c2ccc([N+](=O)[O-])cc2)CC1)c1ccc(F)cc1 (single isomer, unassigned)	%	29.6
NC(=O)OC(CCN1CCN(c2ccccc2)CC1)c1cccc([N+](=O)[O-])c1 (single isomer, unassigned)	%	86.4
